# Lookup of reported Kd keyed by entry
# test_system: human recombinant EpCAM antigen (extracellular domain, residues 1 to 265, fused with 6×His tag and Avi-tag) (human) (UniProt P16422)
# Sequence (P16422 24-265 limits assumed, form in doubt): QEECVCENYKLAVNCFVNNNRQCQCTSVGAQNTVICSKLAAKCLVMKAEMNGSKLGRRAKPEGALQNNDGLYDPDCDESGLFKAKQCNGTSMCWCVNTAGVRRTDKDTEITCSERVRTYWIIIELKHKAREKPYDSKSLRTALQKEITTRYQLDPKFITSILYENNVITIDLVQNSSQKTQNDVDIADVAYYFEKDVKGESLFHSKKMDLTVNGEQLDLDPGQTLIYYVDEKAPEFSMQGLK
# experimental_details: SPR (Biacore 2000), EpCAM on CM5 chip (about 211 RU), antibody 6.25-100 nM as analyte
value_kind: Kd (nM)

binder="epRas03 (4-8) (antibody, part only; not given: RT22 heavy chain, light constant, V domains shown, not shown: another chain or arm of the molecule; a dimerising Fc or GST, chain 1: disulfide bond Cys5-Cys10 closes the cyclic peptide) VL: RNLLCIGNLCWPMGSSSNDIQMTQSPSSLSASVGDRVTITCKSSQSLLNSRDGKNYLAWYQQKPGKAPKLLIYWASTRESGVPSRFSGSGSGTDFTLTISSLQPEDFATYFCQQYWYWMYTFGQGTKVEIK" u=nM readout_value=3.04
binder="epRas03 (4-13) (antibody, part only; not given: RT22 heavy chain, light constant, V domains shown, not shown: another chain or arm of the molecule; a dimerising Fc or GST, chain 1: disulfide bond Cys5-Cys10 closes the cyclic peptide) VL: RNLQCIRNICWSMGSSSNDIQMTQSPSSLSASVGDRVTITCKSSQSLLNSRDGKNYLAWYQQKPGKAPKLLIYWASTRESGVPSRFSGSGSGTDFTLTISSLQPEDFATYFCQQYWYWMYTFGQGTKVEIK" u=nM readout_value=0.185
binder="epRas03 (4-27) (antibody, part only; not given: RT22 heavy chain, light constant, V domains shown, not shown: another chain or arm of the molecule; a dimerising Fc or GST, chain 1: disulfide bond Cys5-Cys10 closes the cyclic peptide) VL: RHLWCLGRLCWPMGSSSNDIQMTQSPSSLSASVGDRVTITCKSSQSLLNSRDGKNYLAWYQQKPGKAPKLLIYWASTRESGVPSRFSGSGSGTDFTLTISSLQPEDFATYFCQQYWYWMYTFGQGTKVEIK" u=nM readout_value=9.94
binder="epRas03 (4-19) (antibody, part only; not given: RT22 heavy chain, light constant, V domains shown, not shown: another chain or arm of the molecule; a dimerising Fc or GST, chain 1: disulfide bond Cys5-Cys10 closes the cyclic peptide) VL: RNLRCIGNICWSMGSSSNDIQMTQSPSSLSASVGDRVTITCKSSQSLLNSRDGKNYLAWYQQKPGKAPKLLIYWASTRESGVPSRFSGSGSGTDFTLTISSLQPEDFATYFCQQYWYWMYTFGQGTKVEIK" u=nM readout_value=0.313

Source of measurements: patent US20190389910A1
